Value source: patent US9505724B2

- TESTED_SYSTEM: human PDE4B1 (Homo sapiens, UniProt Q07343)
- Construct: host or cells: Sf9 cells
- Sequence (Q07343 whole entry): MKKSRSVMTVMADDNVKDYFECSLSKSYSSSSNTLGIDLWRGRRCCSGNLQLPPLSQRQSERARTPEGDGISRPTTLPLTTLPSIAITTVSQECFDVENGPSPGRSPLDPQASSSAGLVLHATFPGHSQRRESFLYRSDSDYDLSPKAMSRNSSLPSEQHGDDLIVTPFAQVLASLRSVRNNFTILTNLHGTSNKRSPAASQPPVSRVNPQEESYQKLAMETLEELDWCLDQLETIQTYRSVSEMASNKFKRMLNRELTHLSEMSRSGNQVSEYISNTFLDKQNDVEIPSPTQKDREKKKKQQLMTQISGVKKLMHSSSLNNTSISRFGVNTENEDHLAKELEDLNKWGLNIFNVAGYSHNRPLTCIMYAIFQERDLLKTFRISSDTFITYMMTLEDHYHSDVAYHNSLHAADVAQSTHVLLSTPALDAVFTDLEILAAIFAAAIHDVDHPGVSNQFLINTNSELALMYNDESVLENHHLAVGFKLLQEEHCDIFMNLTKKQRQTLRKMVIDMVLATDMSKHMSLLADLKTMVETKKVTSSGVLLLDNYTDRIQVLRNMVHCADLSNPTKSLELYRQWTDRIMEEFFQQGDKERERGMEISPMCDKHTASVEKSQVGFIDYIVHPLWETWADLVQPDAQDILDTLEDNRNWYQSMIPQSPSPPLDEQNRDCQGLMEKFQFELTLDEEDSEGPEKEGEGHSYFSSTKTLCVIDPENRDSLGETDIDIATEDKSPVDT
- METHOD: cAMP HTRF assay to determine the activity of hPDE4B1
- Type: biochemical
- MEASUREMENT_CONTEXT: human recombinant PDE4B1, cAMP 40 nM, averaged results (Table 5); read-out: PDE4B IC50
pIC50: −log10 of the molar value.
VALUE_TYPE: pIC50

Guide cases for pIC50, answers given:
O=C(O)Cc1ccc(Nc2nc(-c3ccc(OC(F)F)cc3)nc3c2CCC3)cc1 ... 6.31
O=C(O)Cc1ccc(Nc2nc(-c3ccc(F)c(F)c3)nc3c2CCC3)cc1 ... 6.72

a = O=C(O)Cc1ccc(Nc2nc(-c3ccc4occc4c3)nc3c2CCC3)cc1
b = COc1ccc(-c2nc3c(c(Nc4ccc(C(=O)O)cc4)n2)CCC3)cc1Cl
Which has the smaller recorded pIC50, a or b ? Bench note: the answer is the label of the chosen record. a

A = O=C(O)Cc1ccc(Nc2nc(-c3ccc(Br)cc3)nc3c2CCC3)cc1
B = O=C(O)Cc1ccc(Nc2nc(-c3cccc(Cl)c3)nc3c2CCC3)cc1
C = COc1ccc(-c2nc3c(c(Nc4ccc(CC(=O)O)cc4)n2)CCC3)cc1Cl
D = O=C(O)c1ccc(Nc2nc(-c3cccc(Cl)c3)nc3c2CCCC3)cc1
E = COc1ccc(-c2nc3c(c(Nc4ccc(CC(=O)O)cc4)n2)CCC3)cc1F
Arrange the 5 entries by pIC50 so the values rise. Reply: labels, ordered per the request. D, A, B, E, C
